target: SRC (Homo sapiens, UniProt P12931)
Sequence (P12931 2-536): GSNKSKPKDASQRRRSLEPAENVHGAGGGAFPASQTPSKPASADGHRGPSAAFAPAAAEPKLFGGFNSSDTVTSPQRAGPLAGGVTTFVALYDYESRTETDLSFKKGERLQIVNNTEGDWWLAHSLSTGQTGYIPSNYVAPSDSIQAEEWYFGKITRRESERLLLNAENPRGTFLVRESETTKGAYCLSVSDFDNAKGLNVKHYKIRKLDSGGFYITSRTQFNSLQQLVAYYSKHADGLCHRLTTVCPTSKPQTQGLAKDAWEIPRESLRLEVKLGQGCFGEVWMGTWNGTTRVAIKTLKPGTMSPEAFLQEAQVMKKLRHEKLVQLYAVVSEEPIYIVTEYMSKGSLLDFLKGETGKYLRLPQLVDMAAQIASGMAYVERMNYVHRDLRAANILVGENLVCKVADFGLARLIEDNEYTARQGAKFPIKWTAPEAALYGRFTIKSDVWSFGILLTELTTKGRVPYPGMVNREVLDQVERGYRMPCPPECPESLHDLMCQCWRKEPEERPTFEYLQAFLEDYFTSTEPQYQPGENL
pKi: −log10 of the molar value.
measurement.label: pKi

Hi! What's the reported pKi for `CNC(=O)c1cccc2cc(Oc3ccnc4cc(OCC5(N)CC5)c(OC)cc34)ccc12` on SRC (Homo sapiens, UniProt P12931)?
< 4.30
